Test: qHTS Assay for Spectroscopic Profiling in 4-MU Spectral Region
Details: compound autofluorescence, 340/450 nm, 4-MU equivalents
Source text: NIH Molecular Libraries Screening Centers Network [MLSCN] NIH Chemical Genomics Center [NCGC] […] While the most informative fluorescent profiling data set is obtained by performing a full excitation and emission scan of each well by using a monochromator-based plate reader, such an approach is practical only on a very limited scale as scanning each well requires long time. […]
The campaign covered roughly 59,000 compounds. About 6,200 (11%) were called active. Inconclusive results (about 9%) are left out. Cut-off read from the data, not from the text of the source: active = max dye-equivalent concentration above about 10 nM; inconclusive = mostly about 1.1 nM to 9.6 nM; inactive = weaker than that. This is one part of a sample in which actives are shown more often than they occur.
Field 'call' accepts 1 (active), -1 (inactive)

IN: Which outcome did this test record for the molecule COc1cccc(-c2nc(Nc3ccncc3)c3ccccc3n2)c1 ?
OUT: -1

IN: Next molecule up: O=C1CCCc2c1[nH]c1ccc(Br)cc21
OUT: -1

IN: Next molecule up: CCOC(=O)C1CCCN(C(=O)c2cncc(Br)c2)C1 (centres undefined)
OUT: -1

IN: Next molecule up: CCN(CC)C(=O)CSc1nnc(-c2cnccn2)n1-c1ccc(C)cc1
OUT: -1

IN: Next molecule up: CCCCNC(=O)CSc1nnc(-c2ccco2)n1C
OUT: -1

IN: Next molecule up: Cc1cc(NC(=O)CN2CCC(O)(c3cccc(F)c3)CC2)no1
OUT: -1

* * *

Experiment: qHTS Assay for Spectroscopic Profiling in 4-MU Spectral Region
Conditions: compound autofluorescence, 340/450 nm, 4-MU equivalents
In all, about 59,000 compounds went through this assay and about 6,200 (11%) were called active. Inconclusive results (about 9%) are left out. Cut-off read from the data, not from the text of the source: active = max dye-equivalent concentration above about 10 nM; inconclusive = mostly about 1.1 nM to 9.6 nM; inactive = weaker than that. The sample holds actives, similar compounds and a random draw of the others, so the mix is not that of the screen.
Field 'call' accepts active, inactive

Record excerpt, results attached:
{"columns": ["compound", "discrete_label"],
 "data": [
  ["CC1CCCCN1CC(=O)NCc1ccc2c(c1)OCO2 (configuration not stated)", "active"],
  ["C[C@]1(O)CC[C@H]2[C@H]3CC=C4N5CCN=C5CC[C@@]4(C)[C@H]3CC[C@@]21C", "inactive"],
  ["C=CCn1c(COc2cccc3cccnc23)nnc1SCC(=O)OC", "inactive"],
  ["COc1ccc(OCCCC(=O)Nc2nnc(C3CCCO3)s2)cc1 (configuration not stated)", "inactive"],
  ["COc1ccc(Cc2nnc(NC(=O)Cc3cccs3)s2)cc1", "inactive"]
]}

IN: Which outcome did this test record for the compound COC(C)(C)[C@]12CC(O)(C(C)C)ON1[C@H]1CCCCC1N2O (some centres not stated) ?
OUT: inactive

IN: Next compound up: CCS(=O)(=O)NCCc1ccc(OC)c(OC)c1
OUT: inactive

IN: Next compound up: Cc1cccc(OCc2nnc(SCn3nnc4ccccc4c3=O)o2)c1
OUT: inactive

* * *

Assay: qHTS Assay for Spectroscopic Profiling in 4-MU Spectral Region
Conditions: compound autofluorescence, 340/450 nm, 4-MU equivalents
Source text: NIH Molecular Libraries Screening Centers Network [MLSCN] NIH Chemical Genomics Center [NCGC] […] While the most informative fluorescent profiling data set is obtained by performing a full excitation and emission scan of each well by using a monochromator-based plate reader, such an approach is practical only on a very limited scale as scanning each well requires long time. […]
Screen size: about 59,000 compounds; about 6,200 (11%) were called active. Not shown: some 9% with an inconclusive outcome. Rule as the data show it: active = max dye-equivalent concentration above about 10 nM; inconclusive = mostly about 1.1 nM to 9.6 nM; inactive = weaker than that. What follows is part of a selection rich in actives, with near analogues and random picks from the rest.
Field 'call' accepts 1 (active), 0 (inactive)

{"columns": ["molecule", "discrete_label"],
 "data": [
  ["CC1CCc2c(sc3c2C2=NS(=O)(=O)CCN2C=N3)C1 (stereo unspecified)", 1],
  ["Cc1ccnc(SCCn2c(Br)nc3c2c(=O)[nH]c(=O)n3C)n1", 0],
  ["Cc1ccc(S(=O)(=O)NCC(=O)N(CC(=O)NC2CCCCC2)Cc2ccco2)cc1", 0],
  ["Clc1ccc(C=Nc2ccc3c(c2)Cc2ccccc2-3)c(Cl)c1", 0],
  ["Cc1csc(NC(=O)NC2(C(F)(F)F)Oc3ccccc3O2)n1", 1]
]}

Here is the next item to consider.
IN: Which outcome did this test record for the molecule CCC(=O)Nc1ccccc1N1CCN(S(C)(=O)=O)CC1 ?
OUT: 0

* * *

Assay: qHTS Assay for Spectroscopic Profiling in 4-MU Spectral Region
Settings: compound autofluorescence, 340/450 nm, 4-MU equivalents
In all, about 59,000 compounds went through this assay and about 6,200 (11%) were called active. Another 9% or so got no clear call; they are omitted. Rule as the data show it: active = max dye-equivalent concentration above about 10 nM; inconclusive = mostly about 1.1 nM to 9.6 nM; inactive = weaker than that. What follows is part of a selection rich in actives, with near analogues and random picks from the rest.
Field 'call' accepts 1 (yes) for active, 0 (no) for inactive

{"columns": ["compound", "discrete_label"],
 "data": [
  ["O=C(Cn1cnc2c(cnn2-c2ccccc2)c1=O)NCc1ccccc1", "0 (no)"]
]}

IN: Which outcome did this test record for the compound O=C(NCCN1CCOCC1)c1c(F)c(F)c(F)c(F)c1F ?
OUT: 0 (no)

IN: Next compound up: N#Cc1c2c(c(N3CCN(CCO)CC3)n3c1nc1ccccc13)CCCC2
OUT: 1 (yes)

IN: Next compound up: COc1ccccc1CCn1c(=O)c(-c2cn(C)c3ccccc23)nc2cncnc21
OUT: 0 (no)

IN: Next compound up: Oc1ccccc1CNCc1ccccc1O
OUT: 0 (no)

IN: Next compound up: O=C(Nc1nn(Cc2ccccc2F)cc1Br)c1cccs1
OUT: 0 (no)

IN: Next compound up: CN(C)c1nc2n(c(=O)n1)CCO2
OUT: 0 (no)

IN: Next compound up: CCOC(=O)c1cnc(-n2nc(C)cc2C)nc1-n1nc(C)cc1C
OUT: 0 (no)

IN: Next compound up: CCOc1ccccc1Nc1nnc(SCC(=O)Nc2cc(C)on2)s1
OUT: 0 (no)

IN: Next compound up: CCOC(=O)c1cc(-c2ccc(Cl)s2)nc2c1c(C)nn2C
OUT: 1 (yes)

IN: Next compound up: CCOC(=O)c1csc(NC(=O)c2ccc(S(=O)(=O)N3CCCC3)cc2)n1
OUT: 0 (no)

IN: Next compound up: COc1cc(C2C(C(=O)c3ccc(C)o3)=C(O)C(=O)N2Cc2cccnc2)ccc1O (stereo not drawn)
OUT: 0 (no)

IN: Next compound up: CCOc1cc(CN2CCN(C(=O)CC(C)C)CC2)ccc1OC
OUT: 0 (no)

IN: Next compound up: C[C@H](NC(=O)OC(C)(C)C)c1nnc(SCC(N)=O)o1
OUT: 0 (no)

IN: Next compound up: CC12CCC(C(=O)N3CCN(c4ncccn4)CC3)(c3nc4ccccc4nc31)C2(C)C (stereo not drawn)
OUT: 0 (no)

IN: Next compound up: O=C(CC1OC(=O)c2ccccc21)NC1CCCCC1 (stereo not drawn)
OUT: 0 (no)

IN: Next compound up: Cc1ccc(CNC(=O)C2CC(=O)N(C3CCCCCCC3)C2)cc1 (stereo not drawn)
OUT: 0 (no)

IN: Next compound up: CC(=O)c1cccc(NC(=O)N2CCCC2C(=O)NCCC(C)C)c1 (stereo not drawn)
OUT: 0 (no)

IN: Next compound up: O=C(O)c1ccc(C(=O)c2ccccc2C(=O)O)cc1C(=O)O
OUT: 0 (no)

IN: Next compound up: CN(C(=O)COc1nnc(-c2cccs2)c(-c2cccs2)n1)c1ccccc1
OUT: 0 (no)

IN: Next compound up: Cc1cc(C)n(C(=O)c2ccc(S(=O)(=O)N3CCCC3)cc2)n1
OUT: 0 (no)

IN: Next compound up: CSc1sc(C)cc1C1C(C#N)=C(N)N(c2cccnc2)C2=C1C(=O)CCC2 (stereo not drawn)
OUT: 0 (no)

IN: Next compound up: O=C(OCC(=O)N1CCCC1)c1ccco1
OUT: 0 (no)

* * *

Assay: qHTS Assay for Spectroscopic Profiling in 4-MU Spectral Region
Details: compound autofluorescence, 340/450 nm, 4-MU equivalents
Hit rate of the full screen: of about 59,000 compounds, about 6,200 (11%) were called active. Roughly 9% stayed inconclusive and do not appear here. No stated cut-off is given here; in the data, active means max dye-equivalent concentration above about 10 nM; inconclusive means mostly about 1.1 nM to 9.6 nM; inactive means weaker than that. Only a selection was taken, and actives are over-represented in it overall.
Field 'call' accepts active, inactive

Record excerpt, results attached:
{"columns": ["line_notation", "discrete_label"],
 "data": [
  ["COc1ccc(N(C(=O)c2cccnc2)S(=O)(=O)c2ccc3c(c2)n(C)c(=O)n3C)cc1", "inactive"],
  ["CCOC(=O)c1sc(=S)n2c1[nH]c(=O)c1ccc(C(=O)OC)cc12", "inactive"],
  ["COc1ccc(-c2c3c(=O)n(C)c(=O)n(C)c3cn2NC(C)=O)cc1", "active"],
  ["Cc1ccc(-c2c3c(=O)n(C)c(=O)n(C)c3cn2-c2ccccc2O)cc1", "inactive"],
  ["COc1ccc(OC)c(-n2cc3c(=O)n(C)c(=O)n(C)c3c2)c1", "inactive"]
]}

IN: Which outcome did this test record for the molecule CCc1c(C)c2c(C)[nH]nc2oc1=O ?
OUT: inactive

IN: Next molecule up: O=C1NC(=O)[C@@](Cc2ccccc2)(c2cccnc2)N1
OUT: inactive

IN: Next molecule up: C/C(Cl)=C\Cn1c(Nc2cccc(C)c2)nc2c1c(=O)n(C)c(=O)n2C
OUT: inactive

IN: Next molecule up: CCn1nc(NC(=O)c2ccco2)c2cc3ccc(C)cc3nc21
OUT: active

IN: Next molecule up: CCOc1ccc(-c2cn(S(=O)(=O)c3cccc4nsnc34)nc2N)cc1
OUT: inactive

IN: Next molecule up: CCN(CC)C(=O)c1sc(NC(=O)c2ccco2)c(C#N)c1C
OUT: inactive
